- System: S. MRSA
- testDetails: microbe, parasite or virus in culture
- Format: cell-based
- settings: Staphylococcus aureus, MRSA, 30 μM; read-out: S. MRSA 30 μM (growth inhibition)
A collection of molecules and their measured inhibition at 30 µM
resultType: inhibition at 30 µM (%)

INSERT INTO measurements (molecule, tgt, unitspec, recordedmeasurement) VALUES
  ('O=C1NC(=S)NC(=O)C1=Cc1ccc(Br)s1', 'S. MRSA', '%', 22.1),
  ('O=C1NC(=S)S/C1=C/c1ccc(-c2ccc3c(c2)C(=O)NC3=O)o1', 'S. MRSA', '%', 61.2),
  ('O=C1NC(=S)NC(=O)C1=Cc1ccc(Br)cc1', 'S. MRSA', '%', 8.76),
  ('O=C1Nc2cc(Cl)c(Br)cc2/C1=C1/NC(=S)N(C(Cc2ccccc2)C(=O)O)C1=O (stereo not drawn)', 'S. MRSA', '%', 93.8),
  ('O=C(O)C(Cc1ccccc1)N1C(=O)/C(=C\c2ccc(-c3ccc(Cl)cc3)s2)NC1=S (stereo not drawn)', 'S. MRSA', '%', 91),
  ('O=C(O)C(Cc1ccccc1)N1C(=O)/C(=C\c2ccc(-c3ccc(Cl)cc3)o2)NC1=S (stereo not drawn)', 'S. MRSA', '%', 86.6),
  ('O=C1NC(=S)NC(=O)C1=Cc1ccc(-c2ccc(Cl)cc2)o1', 'S. MRSA', '%', 63.2),
  ('O=C(O)C(Cc1ccccc1)N1C(=O)/C(=C\c2ccc(-c3ccc(Br)cc3)o2)NC1=S (stereo not drawn)', 'S. MRSA', '%', 95.4),
  ('O=C1NC(=O)C(=Cc2ccc(Br)s2)C(=O)N1', 'S. MRSA', '%', 18.4),
  ('N#CNC(=O)C(Cc1ccccc1)N1C(=O)/C(=C\c2ccc(-c3ccc(Cl)c(Cl)c3)o2)NC1=S (stereo not drawn)', 'S. MRSA', '%', 97.5),
  ('O=C(O)C(Cc1ccccc1)N1C(=O)/C(=C\c2ccc(-c3ccc(Br)c(Cl)c3)s2)NC1=S (stereo not drawn)', 'S. MRSA', '%', -0.89),
  ('O=C1NC(=S)NC(=O)C1=Cc1ccc(-c2cccc(Cl)c2)o1', 'S. MRSA', '%', 47.8),
  ('COc1ccc(-c2ccc(/C=C3/NC(=S)N(C(Cc4ccccc4)C(=O)O)C3=O)s2)cc1 (stereo not drawn)', 'S. MRSA', '%', 18.5),
  ('O=C(O)C(Cc1ccccc1)N1C(=O)/C(=C\c2ccc(Cl)c(Cl)c2)NC1=S (stereo not drawn)', 'S. MRSA', '%', -5.12),
  ('CCC(C(=O)NS(C)(=O)=O)N1C(=O)/C(=C\c2ccc(-c3ccc(Cl)c(Cl)c3)o2)NC1=S (stereo not drawn)', 'S. MRSA', '%', 0.06),
  ('O=C(O)C(Cc1ccccc1)N1C(=O)/C(=C\c2ccc(-c3ccc(Cl)c(Cl)c3)s2)NC1=S (stereo not drawn)', 'S. MRSA', '%', 35.6),
  ('O=C(O)C(Cc1ccccc1)N1C(=O)/C(=C\c2ccc(Br)s2)NC1=S (stereo not drawn)', 'S. MRSA', '%', -6.27),
  ('O=C(O)CCCCCN1C(=O)/C(=C2/C(=O)Nc3ccc(Br)cc32)SC1=S', 'S. MRSA', '%', 69.4);

====

- System: B. Anthracis
- testDetails: microbe, parasite or virus in culture
- Assay type: cell-based
- settings: Bacillus anthracis, 3 μM; read-out: B. Anthracis 3 μM (growth inhibition)
resultType: inhibition at 3 µM (%)

INSERT INTO assay_data (compound, tgt, recordedmeasurement) VALUES
  ('O=C(O)C(Cc1ccccc1)N1C(=O)/C(=C\c2ccc(-c3ccc(Cl)cc3)o2)NC1=S (stereo not shown)', 'B. Anthracis', 4.99),
  ('O=C(O)C(Cc1ccccc1)N1C(=O)/C(=C\c2ccc(-c3ccnc(Cl)c3)o2)NC1=S (stereo not shown)', 'B. Anthracis', 2.54),
  ('O=C(O)C(Cc1ccccc1)N1C(=O)/C(=C\c2ccc(-c3ccc(OC(F)(F)F)cc3)o2)NC1=S (stereo not shown)', 'B. Anthracis', 8.01),
  ('O=C(O)[C@@H](Cc1ccccc1)N1C(=O)/C(=C\c2ccc(-c3ccc(Cl)c(Cl)c3)o2)NC1=S', 'B. Anthracis', 9.41),
  ('O=C([O-])C(Cc1ccccc1)N1C(=O)/C(=C\c2ccc(-c3cccc(Cl)c3)o2)NC1=S.[Na+] (stereo not shown)', 'B. Anthracis', 6.01),
  ('O=C(O)[C@H](Cc1ccccc1)N1C(=O)/C(=C\c2ccc(-c3ccc(Cl)c(Cl)c3)o2)NC1=S', 'B. Anthracis', -0.39),
  ('CCc1ccccc1N1C(=O)/C(=C/c2ccc(-c3cc(C(=O)O)ccc3Cl)o2)C(=O)NC1=S', 'B. Anthracis', -10.8),
  ('CC(=O)C(Cc1ccccc1)N1C(=O)/C(=C2/C(=O)Nc3cc(Cl)c(Cl)cc32)NC1=S (stereo not shown)', 'B. Anthracis', 1.73),
  ('CCN1C(=O)NC(=O)/C(=C\c2ccc(-c3ccc(Cl)c(C(=O)O)c3)o2)C1=O', 'B. Anthracis', -8.49),
  ('O=C(O)C(Cc1ccccc1)N1C(=O)/C(=C\c2ccc(-c3ccccc3)o2)NC1=S (stereo not shown)', 'B. Anthracis', 2.29),
  ('N#CNC(=O)C(Cc1ccccc1)N1C(=O)/C(=C\c2ccc(-c3cccc(Cl)c3)o2)NC1=S (stereo not shown)', 'B. Anthracis', -1.9),
  ('O=C1Nc2cc(Cl)c(Br)cc2/C1=C1/NC(=S)N(C(Cc2ccccc2)C(=O)O)C1=O (stereo not shown)', 'B. Anthracis', 11.3),
  ('CCOc1cccc(N2C(=O)/C(=C/c3ccc(-c4cc(C(=O)O)ccc4Cl)o3)C(=O)NC2=S)c1', 'B. Anthracis', -9.26),
  ('CN1C(=O)C(Cc2ccc(-c3ccc(Cl)c(Cl)c3)o2)C(=O)N(C)C1=O', 'B. Anthracis', -8.49),
  ('O=C(O)[C@H](Cc1ccccc1)N1C(=O)/C(=C\c2ccc(-c3cc(C(F)(F)F)ccc3Cl)o2)NC1=S', 'B. Anthracis', 88.2),
  ('O=C(NS(=O)(=O)C(F)(F)F)C(Cc1ccccc1)N1C(=O)/C(=C\c2ccc(-c3ccc(Cl)c(Cl)c3)o2)NC1=S (stereo not shown)', 'B. Anthracis', 69.4);

====

Below, each entry is listed with its recorded B. Anthracis 10 μM (growth inhibition).
- Tested on: B. Anthracis
- testDetails: microbe, parasite or virus in culture
- Type: cell-based
- settings: 10 μM
resultType: B. Anthracis 10 μM (growth inhibition)

INSERT INTO assay_data (molecule, resulttype, recordedmeasurement) VALUES
  ('CC(C)C(C(=O)O)N1C(=O)/C(=C2/C(=O)Nc3ccccc32)SC1=S (stereo not drawn) [Cmpd 17]', 'B. Anthracis 10 μM (growth inhibition)', '−2.28'),
  ('O=C([O-])C(Cc1ccccc1)N1C(=O)/C(=C\c2ccc(-c3ccc(Cl)c(Cl)c3)o2)NC1=S.[Na+] (stereo not drawn) [Cmpd 65]', 'B. Anthracis 10 μM (growth inhibition)', 107.86),
  ('O=C1Nc2ccc(Br)cc2/C1=C1/SC(=S)N(C(Cc2ccccc2)C(=O)O)C1=O (stereo not drawn) [Cmpd 22]', 'B. Anthracis 10 μM (growth inhibition)', 83.27),
  ('O=C1Nc2ccc(Br)cc2/C1=C1/SC(=S)N(C(Cc2ccccc2)C(=O)O)C1=O (stereo not drawn) [Cmpd 13]', 'B. Anthracis 10 μM (growth inhibition)', 10.27),
  ('O=C(O)C(Cc1ccccc1)N1C(=O)/C(=C\c2ccc(-c3ccc(Cl)c(Cl)c3)o2)NC1=S (stereo not drawn) [Cmpd 46]', 'B. Anthracis 10 μM (growth inhibition)', 108.46),
  ('CC(C)C(C(=O)O)N1C(=O)/C(=C2/C(=O)Nc3ccccc32)SC1=S (stereo not drawn) [Cmpd 5]', 'B. Anthracis 10 μM (growth inhibition)', '−1.33');

====

- Test system: S. MRSA
- testDetails: microbe, parasite or virus in culture
- Assay type: cell-based
- settings: Staphylococcus aureus, MRSA, 3 μM; read-out: S. MRSA 3 μM (growth inhibition)
Below, each entry is listed alongside its reported inhibition at 3 µM.
resultType: inhibition at 3 µM (%)

INSERT INTO measurements (compound, resulttype, unitspec, recordedmeasurement) VALUES
  ('O=C(O)C(Cc1ccccc1)N1C(=O)/C(=C\c2ccc(-c3ccc(Cl)cc3)o2)NC1=S (stereo not shown)', 'inhibition at 3 µM', '%', -13.5),
  ('O=C(NS(=O)(=O)C(F)(F)F)C(Cc1ccccc1)N1C(=O)/C(=C\c2ccc(-c3ccc(Cl)c(Cl)c3)o2)NC1=S (stereo not shown)', 'inhibition at 3 µM', '%', 0.23),
  ('O=C(O)C(Cc1ccccc1)N1C(=O)/C(=C\c2ccc(-c3ccccc3)o2)NC1=S (stereo not shown)', 'inhibition at 3 µM', '%', -2.55),
  ('CS(=O)(=O)NC(=O)C(Cc1ccccc1)N1C(=O)/C(=C\c2ccc(-c3ccc(Cl)c(Cl)c3)o2)NC1=S (stereo not shown)', 'inhibition at 3 µM', '%', 3.18);
